Ref: the RNAGym collection of RNA variant scans (doi:10.1073/pnas.2313332121)

B1: TPR t1 (parent)
chain: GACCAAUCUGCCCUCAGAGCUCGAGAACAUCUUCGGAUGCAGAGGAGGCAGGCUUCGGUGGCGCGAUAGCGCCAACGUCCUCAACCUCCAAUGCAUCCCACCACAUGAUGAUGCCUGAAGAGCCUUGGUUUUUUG

Variants of: B1
Assay: polymerase ribozyme fitness, log enrichment relative to wild type (log ratio); higher = more active; in vitro selection for triplet polymerase activity
readout.type: polymerase ribozyme fitness (log ratio)
Hey, just send me the number, nothing else.

IN: Find the recorded polymerase ribozyme fitness (log ratio) belonging to A16G A50U U81G and report it.
OUT: -2.01

IN: Please give the result for A2C C8A G42C U54A U78A C98U G120A G127C too.
OUT: -2.04

IN: What do you have for C64U U92A ?
OUT: -3.06

IN: What about A16U G48C U59C U126C ?
OUT: -2.91

IN: Proceed to C70U G113C
OUT: -3.06

IN: Entry G19C C72G please
OUT: -3.09

IN: Next: U21G C102A
OUT: -2.91

IN: Follow-up item: U59A G128A
OUT: -1.96
